# Target: T1, human GIP receptor (human, UniProt P48546 22-466)
# T1 sequence (looked up): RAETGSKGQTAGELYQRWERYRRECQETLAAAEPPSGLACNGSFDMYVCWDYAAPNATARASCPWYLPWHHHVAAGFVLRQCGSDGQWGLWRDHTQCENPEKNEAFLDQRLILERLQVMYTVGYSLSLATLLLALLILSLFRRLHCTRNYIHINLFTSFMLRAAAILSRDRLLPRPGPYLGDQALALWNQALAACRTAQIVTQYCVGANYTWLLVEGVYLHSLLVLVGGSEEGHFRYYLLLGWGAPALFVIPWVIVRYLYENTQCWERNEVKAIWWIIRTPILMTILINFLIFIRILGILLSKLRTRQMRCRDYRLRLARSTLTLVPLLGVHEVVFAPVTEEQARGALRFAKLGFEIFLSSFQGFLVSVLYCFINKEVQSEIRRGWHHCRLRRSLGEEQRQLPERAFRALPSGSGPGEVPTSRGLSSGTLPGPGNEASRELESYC
# Test Method Notes: cell-based or functional assay
Returns: string. Value is Condition met if measured cAMP Emax (1.0% HSA) is below 80%, and Condition not met if it is greater than or equal to it.

Below, 4 binders whose answers are already recorded.
[
  {
    "Binder": "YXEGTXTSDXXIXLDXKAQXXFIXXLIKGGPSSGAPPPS (Y-Aib-EGT-αMeF(2F)-TSD-4Pal-Aib-I-αMeL-LD-Orn-K((2-[2-(2-Amino-ethoxy)-ethoxy]-acetyl)2-(α-Glu)-(10-(4-carboxyphenoxy)decanoyl))AQ-Aib-Om-FI-(D-Glu)-αMeY-LIK((2-[2-(2-Amino-ethoxy)-ethoxy]-acetyl)2-(γ-Glu)-(10-(4-carboxyphenoxy)decanoyl))GGPSSGAPPPS-NH2) [Example 351]",
    "Assigned Category": "Condition met"
  },
  {
    "Binder": "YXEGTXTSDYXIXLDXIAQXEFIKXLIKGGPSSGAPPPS (Y-Aib-EGT-αMeF(2F)-TSDY-Aib-I-αMeL-LD-Orn-IAQ-Aib-EFIK((2-[2-(2-Amino-ethoxy)-ethoxy]-acetyl)3-(γ-Glu)-CO-(CH2)12-CO2H)-αMeY-LIK((2-[2-(2-Amino-ethoxy)-ethoxy]-acetyl)3-(γ-Glu)-CO-(CH2)12-CO2H)GGPSSGAPPPS-NH2) [Example 343]",
    "Assigned Category": "Condition not met"
  },
  {
    "Binder": "YXEGTXTSDKSIXLDXKAQXEXIXXLIEGGPSSGAPPPS (Y-Aib-EGT-αMeF(2F)-TSDK((2-[2-(2-Amino-ethoxy)-ethoxy]-acetyl)2-(γ-Glu)-CO-(CH2)10-CH3)SI-αMeL-LD-Orn-K((2-[2-(2-Amino-ethoxy)-ethoxy]-acetyl)2-(γ-Glu)-CO-(CH2)10-CH3)AQ-Aib-E-αMeF-I-(D-Glu)-αMeY-LIEGGPSSGAPPPS-NH2) [Example 293]",
    "Assigned Category": "Condition not met"
  },
  {
    "Binder": "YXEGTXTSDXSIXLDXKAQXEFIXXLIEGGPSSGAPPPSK (Y-Aib-EGT-αMeF(2F)-TSD-4Pal-SI-αMeL-LD-Orn-K((2-[2-(2-Amino-ethoxy)-ethoxy]-acetyl)3-(γ-Glu)-CO-(CH2)12-CO2H)AQ-Aib-EFI-(D-Glu)-αMeY-LIEGGPSSGAPPPSK((2-[2-(2-Amino-ethoxy)-ethoxy]-acetyl)3-(γ-Glu)-CO-(CH2)12-CO2H)-NH2) [Example 225]",
    "Assigned Category": "Condition met"
  }
]

Inquiry: State whether 80% exceeds cAMP Emax (1.0% HSA) recorded for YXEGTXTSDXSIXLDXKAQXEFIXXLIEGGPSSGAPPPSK (Y-Aib-EGT-αMeF(2F)-TSD-2Nal-SI-αMeL-LD-Orn-K((2-[2-(2-Amino-ethoxy)-ethoxy]-acetyl)2-(γ-Glu)-CO-(CH2)12-CO2H)AQ-Aib-EFI-(D-Glu)-αMeY-LIEGGPSSGAPPPSK((2-[2-(2-Amino-ethoxy)-ethoxyl-acetyl)2-(γ-Glu)-CO-(CH2)12-CO2H)-NH2) [Example 251] .
Reply text: Condition met

Inquiry: # repeat for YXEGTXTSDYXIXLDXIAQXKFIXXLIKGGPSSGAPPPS (Y-Aib-EGT-αMeF(2F)-TSDY-Aib-I-αMeL-LD-Orn-IAQ-Aib-K((2-[2-(2-Amino-ethoxy)-ethoxy]-acetyl)2-(γ-Glu)-(10-(4-carboxyphenoxy)decanoyl))FI-(D-Glu)-αMeY-LIK((2-[2-(2-Amino-ethoxy)-ethoxy]-acetyl)2-(γ-Glu)-(10-(4-carboxyphenoxy)decanoyl))GGPSSGAPPPS-NH2) [Example 240]
Reply text: Condition not met

Inquiry: # repeat for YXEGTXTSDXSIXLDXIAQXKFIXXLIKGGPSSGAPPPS (Y-Aib-EGT-αMeF(2F)-TSD-OMeY-SI-αMeL-LD-Orn-IAQ-Aib-K((2-[2-(2-Amino-ethoxy)-ethoxy]-acetyl)2-(γ-Glu)-(10-(4-carboxyphenoxy)decanoyl))FI-(D-Glu)-αMeY-LIK((2-[2-(2-Amino-ethoxy)-ethoxy]-acetyl)2-(γ-Glu)-(10-(4-carboxyphenoxy)decanoyl))GGPSSGAPPPS-NH2) [Example 280]
Reply text: Condition not met

Inquiry: # repeat for YXEGTXTSDXSIXLDXKAQXKFIXXLIXGGPSSGAPPPS (Y-Aib-EGT-αMeF(2F)-TSD-4Pal-SI-αMeL-LD-Orn-K((2-[2-(2-Amino-ethoxy)-ethoxy]-acetyl)2-(γ-Glu)-CO-(CH2)10-CH3)AQ-Aib-K((2-[2-(2-Amino-ethoxy)-ethoxy]-acetyl)2-(γ-Glu)-CO-(CH2)10-CH3)FI-(D-Glu)-αMeY-LI-Orn-GGPSSGAPPPS-NH2) [Example 298]
Reply text: Condition not met

Inquiry: # repeat for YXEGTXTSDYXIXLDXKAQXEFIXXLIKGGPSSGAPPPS (Y-Aib-EGT-αMeF(2F)-TSDY-Aib-I-αMeL-LD-Orn-K((2-[2-(2-Amino-ethoxy)-ethoxy]-acetyl)2-(γ-Glu)-CO-(CH2)10-CH3)AQ-Aib-EFI-(D-Glu)-αMeY-LIK((2-[2-(2-Amino-ethoxy)-ethoxy]-acetyl)2-(γ-Glu)-CO-(CH2)10-CH3)GGPSSGAPPPS-NH2) [Example 301]
Reply text: Condition not met

Inquiry: # repeat for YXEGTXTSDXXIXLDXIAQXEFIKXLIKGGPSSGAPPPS (Y-Aib-EGT-αMeF(2F)-TSD-4Pal-Aib-I-αMeL-LD-Orn-IAQ-Aib-EFIK(2-[2-(2-Amino-ethoxy)-ethoxy]-acetyl)2-(γ-Glu)-(11-(4-carboxyphenoxy)undecanoyl)-αMeY-LIK((2-[2-(2-Amino-ethoxy)-ethoxy]-acetyl)2-(γ-Glu)-(11-(4-carboxyphenoxy)undecanoyl)GGPSSGAPPPS-NH2)) [Example 311]
Reply text: Condition not met

Inquiry: # repeat for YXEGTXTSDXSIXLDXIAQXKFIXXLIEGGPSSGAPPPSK (Y-Aib-EGT-αMeF(2F)-TSD-4Pal-SI-αMeL-LD-Orn-IAQ-Aib-K((2-[2-(2-Amino-ethoxy)-ethoxy]-acetyl)2-(y-Glu)-(10-(4-carboxyphenoxy)decanoyl))FI-(D-Glu)-αMeY-LIEGGPSSGAPPPSK((2-[2-(2-Amino-ethoxy)-ethoxy]-acetyl)2-(γ-Glu)-(10-(4-carboxyphenoxy)decanoyl))-NH2) [Example 276]
Reply text: Condition not met

Inquiry: # repeat for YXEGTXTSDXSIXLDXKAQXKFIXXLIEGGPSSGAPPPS (Y-Aib-EGT-αMeF(2F)-TSD-OMeY-SI-αMeL-LD-Orn-K((2-[2-(2-Amino-ethoxy)-ethoxy]-acetyl)2-(γ-Glu)-CO-(CH2)12-CO2H)AQ-Aib-K((2-[2-(2-Amino-ethoxy)-ethoxy]-acetyl)2-(γ-Glu)-CO-(CH2)12-CO2H)FI-(D-Glu)-αMeY-LIEGGPSSGAPPPS-NH2) [Example 259]
Reply text: Condition met
